Listing: growth of selected compounds
- Test system: HOP-92 NSCLC
- experiment_description: NCI-60 one-dose screen, 48 h (100 = growth as untreated, 0 = no growth, -100 = all killed)
- test_settings: 10 µM unless noted
Compounds without any hit were thinned out: in the full panel of roughly 83,000, 20% have a hit. Activity calls are given as the source filed them. How the source made its calls: active means growth percent below 10; inactive means the rest.

Before answering, review these 5 worked examples.
>>> df
                                   compound            result
0  CCOC(=O)C1=C(N)Oc2c(sc3c(C)cccc23)C1c1ccc(OC)cc1 (configuration not stated)  66.1% (inactive)
1      Cc1ccc(/C=C2\Oc3ccc(O)c(O)c3C2=O)cc1  35.9% (inactive)
2  O=C(CSc1nccc(Nc2ccc(S(=O)(=O)Nc3nccs3)cc2)n1)c1ccc(C(F)(F)F)cc1  90.8% (inactive)
3  O=C(N/N=C/[C@@H](O)[C@H](O)[C@H](O)CO)c1ccc(NC(=O)c2cccnc2)cc1   103% (inactive)
4  CCCCn1c(=O)c(-c2cc(-c3ccc(Cl)cc3)nc(-c3ccc(Cl)cc3)c2)cc2cc(C)ccc21   103% (inactive)

Task: What growth appears in the records for this compound with HOP-92 NSCLC? "COc1cc(C(=O)c2cc(C)c3[nH]c4ccc(O)cc4c3c2C)cc(OC)c1OC"
Output: 32.2% (inactive)

Task: What growth appears in the records for this compound with HOP-92 NSCLC? CN1C(=C2C(=O)OC(C)(C)OC2=O)CCC1C(=O)NCc1ccc(Cl)cc1Cl (configuration not stated)
Output: 85.3% (inactive)

Task: What growth appears in the records for this compound with HOP-92 NSCLC? "CCOC(=O)c1c2c(n(-c3ccc(C#N)cc3)c1-c1ccccc1)C=CCC2"
Output: 98.4% (inactive)

Task: What growth appears in the records for this compound with HOP-92 NSCLC? "Oc1ccc(-c2nc3ccc4[nH]ncc4c3c3c2CCCC3)c2cccnc12"
Output: -16.7% (active)

Task: What growth appears in the records for this compound with HOP-92 NSCLC? "COc1cc2cc(Oc3ccc(NC(=O)Nc4cc(C(F)(F)F)cc(C(F)(F)F)c4)cc3)c(C)nc2cc1OCCN1CCOCC1"
Output: -14.2% (active)

Task: What growth appears in the records for this compound with HOP-92 NSCLC? CCOC(=O)C1=C(N)Oc2c(sc3c(C)cccc23)C1c1ccc(F)cc1 (configuration not stated)
Output: 91.7% (inactive)

Task: What growth appears in the records for this compound with HOP-92 NSCLC? O=C1c2ccccc2NC(n2sc3ccccc3c2=O)N1c1ccccc1 (configuration not stated)
Output: 95.2% (inactive)

Task: What growth appears in the records for this compound with HOP-92 NSCLC? "COc1cccc(Oc2ccccc2NC(=O)CNC(=O)c2cccc3ccccc23)c1"
Output: 31.6% [5 µM] (inactive)

Task: What growth appears in the records for this compound with HOP-92 NSCLC? "NC1CCN(c2nc(Nc3cccc(C(F)(F)F)c3)c3c(=O)[nH]ccc3n2)CC1"
Output: -61.5% (active)

Task: What growth appears in the records for this compound with HOP-92 NSCLC? "Cc1cc2[nH]c(=O)c3c4ncccc4cn3c2cc1C"
Output: 83.3% (inactive)

Task: What growth appears in the records for this compound with HOP-92 NSCLC? "Cc1ccc(S(=O)(=O)N/N=C/C2(c3ccccc3)CC2)cc1"
Output: 90.5% (inactive)

Task: What growth appears in the records for this compound with HOP-92 NSCLC? "CCOC(=O)c1cnn2c3ccccc3n(S(=O)(=O)c3ccc(OC)cc3)c12"
Output: 59.9% (inactive)

Task: What growth appears in the records for this compound with HOP-92 NSCLC? "C[N+]1=C(/C=C/c2ccc(O)c3ncccc23)C(C)(C)c2ccccc21"
Output: 87.1% (inactive)

This collection of values is drawn from PubChem BioAssay (NCI).
